molecular target: human Fc (human); assay: ELISA, negative control
Consider the following binders and their measured optical density readings.
Express it in OD; write the number only.

Below are worked cases with known answers.
{"binder": "375_F07 (antibody, V domains shown) VH: EVQLLESGGGLVQPGGSLRLSCAASGFTFSDYSMNWVRQAPGKGLEWVSNINYNGGYTGYADSVKGRFTISRDNSKNTLYLQMNSLRAEDTAVYYCARGANWHDTALDYWGQGTLVTVSS VL: DIQMTQSPSSLSASVGDRVTITCRASQSILSYLNWYQQKPGKAPKLLIYAATSRASGVPSRFSGSGSGTDFTLTISSLQPEDFATYYCQQSYDSPLTFGGGTKVEIK", "optical density [OD]": 0.172}
{"binder": "365_C05 (antibody, V domains shown) VH: EVQLLESGGGLVQPGGSLRLSCAASGFTFSDYSMNWVRQAPGKGLEWVSGINYNGGYKGYADSVKGRFTISRDNSKNTLYLQMNSLRAEDTAVYYCARGANWHDTHLDYWGQGTLVTVSS VL: DIQMTQSPSSLSASVGDRVTITCRASQSILTYLNWYQQKPGKAPKLLIYAATSRHSGVPSRFSGSGSGTDFTLTISSLQPEDFATYYCQQSYNSPLTFGGGTKVEIK", "optical density [OD]": 0.271}

Now examine the next entry.
Lookup: # get_value(readout='optical density', item= 374_A10 (antibody, V domains shown) VH: EVQLLESGGGLVQPGGSLRLSCAASGFTFSSYGMHWVRQAPGKGLEWVSGINYNGGYTSYADSVKGRFTISRDNSKNTLYLQMNSLRAEDTAVYYCARAATWHDTHLDYWGQGTLVTVSS VL: DIQMTQSPSSLSASVGDRVTITCRASQSILSYVNWYQQKPGKAPKLLIYAATSRASGVPSRFSGSGSGTDFTLTISSLQPEDFATYYCQQSYDTPLTFGGGTKVEIK )
Found: 0.23

The values you see were collected from patent US20210380703A1.
